# target-of-assay: Acetylcholinesterase (Homo sapiens)
# Sequence (P22303 32-614): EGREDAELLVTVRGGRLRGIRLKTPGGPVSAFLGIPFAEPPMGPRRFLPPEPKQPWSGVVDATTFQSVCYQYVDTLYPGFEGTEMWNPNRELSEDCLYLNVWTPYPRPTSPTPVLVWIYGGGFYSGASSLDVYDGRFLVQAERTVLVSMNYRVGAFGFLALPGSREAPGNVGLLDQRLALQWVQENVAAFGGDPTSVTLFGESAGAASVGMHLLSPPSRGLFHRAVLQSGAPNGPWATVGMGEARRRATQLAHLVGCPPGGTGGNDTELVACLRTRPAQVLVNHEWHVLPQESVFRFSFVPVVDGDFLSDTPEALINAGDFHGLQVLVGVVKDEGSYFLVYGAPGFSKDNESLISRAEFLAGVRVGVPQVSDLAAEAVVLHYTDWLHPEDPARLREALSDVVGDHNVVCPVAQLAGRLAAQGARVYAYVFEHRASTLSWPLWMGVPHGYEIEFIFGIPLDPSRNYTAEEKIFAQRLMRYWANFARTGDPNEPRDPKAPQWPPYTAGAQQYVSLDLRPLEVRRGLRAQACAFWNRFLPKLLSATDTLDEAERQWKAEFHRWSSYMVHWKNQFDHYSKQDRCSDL
# procedure-details: biochemical
pIC50: −log10 of the molar value.
The entries below come with measured pIC50 values attached.
readout-name: pIC50

> print(dat)
                                   molecule  relation.symbol  numeric.result
1  COc1cc(N(C)C)c2c3c1O[C@H]1C[C@@H](O)C=C[C@@]31CCN(C)C2 [Nr 56]                <            4.00
2  COc1cc(Br)c2c3c1OC1C[C@@H](O)C=CC31CCN(CCO)C2 (mixture of isomers) [Nr 33]                =            4.47
3  COc1cc(C)c2c3c1O[C@H]1C[C@H](O)C=C[C@@]31CCN(CCCN1CCCCC1)C2 [Nr 138]                <            4.00
4  C#CC[N+]1(C)CCC23C=C[C@H](O)CC2Oc2c(OC)cc(C)c(c23)C1 (mixture of isomers) [Nr 68]                =            4.11
